Tested on: KM12
method: NCI tumour cell line growth inhibition, 48 h
The source made the active and inactive calls. Rule as the data show it: active = GI50 up to about 1.1 µM and inactive = higher.
result type: GI50

1) CN(C)/C=C/c1ccncc1 | > 100 µM (inactive)
2) CCOC(=O)c1sc2c(c1OC(=O)c1cc(OC)c(OC)c(OC)c1)c(=O)n(-c1ccccc1)c(=S)n2-c1ccccc1 | > 100 µM (inactive)
3) N#Cc1cnc(N)nc1NCC1(CO)CC(CCc2ccccc2)C1 (stereo not drawn) | > 85.5 µM (inactive)
4) Cc1nc2cccc([N+](=O)[O-])c2c(NCCCN(C)C)c1C | 34.6 µM (inactive)
5) O=c1nc2sc3ccc4ccccc4c3n2nc1O | > 100 µM (inactive)
6) CCCc1nc(NC#N)nc(C(=O)Nc2ccccc2)c1CC | > 100 µM (inactive)
7) CC12CC(=O)Nc3ccccc3N1C(c1ccccc1)=NO2 (stereo not drawn) | > 100 µM (inactive)
8) Cc1ccc(NC(c2ccccc2)P(=O)(c2ccccc2)c2ccccc2)cc1 (stereo not drawn) | > 100 µM (inactive)
9) Cc1nc(-n2[nH]c(C)c(CCO)c2=O)[nH]c(=O)c1CCO | > 100 µM (inactive)
10) CNC(=S)NNc1ncnc2c1c(-c1ccc(Cl)cc1)cn2-c1ccc(C)cc1 | 7.71 µM (inactive)
11) c1ccc(CSP234N5CCN2CCN3CCN4CC5)c(CSP234N5CCN2CCN3CCN4CC5)c1 | > 100 µM (inactive)
12) COc1ccc(CCNC(=O)CCCCCO)cc1OC | > 100 µM (inactive)
13) S=c1sc2c(S)nc(S)nc2n1-c1ccccc1 | 54.5 µM (inactive)
14) O=C(Nc1ccc(Br)c2ccccc12)c1ccc2ccccc2c1O | 2.9 µM (inactive)
15) O=C(O)c1nc2nc(Cl)c(Cl)nc2[nH]1 | > 100 µM (inactive)
16) CCOc1ccc(/N=C/c2c3ccccc3nc3ccccc23)cc1 | 4.33 µM (inactive)
17) COC1OC(C)C(OCc2ccccc2)C(OS(=O)(=O)c2ccc(C)cc2)C1OS(=O)(=O)c1ccc(C)cc1 (stereo not drawn) | > 100 µM (inactive)
18) Cc1cccc2c(N)c3cccc(C(=O)NCCNCCN)c3nc12 | 3.89 µM (inactive)
19) Cc1cc(C)n(-c2nc3ccccc3c(=O)[nH]2)n1 | 5.94 µM (inactive)
20) O=C(Nc1ccc(Cl)cc1)NS(=O)(=O)c1c(-c2ccccc2)oc2ccccc2c1=O | 36.2 µM (inactive)
21) NC(CCC(=O)c1ccccn1)C(=O)O (stereo not drawn) | > 100 µM (inactive)
22) CCCCOC(=O)C(=O)C(CCC(=O)c1ccc(C)cc1)C(=O)C=C(C)C (stereo not drawn) | > 100 µM (inactive)
23) CCN(CC)CCN(C(=O)C(C)(C)C)c1ccccc1N | > 100 µM (inactive)

* * *

Listed below: GI50 values for each entry.
Tested on: CCRF-CEM
method: NCI tumour cell line growth inhibition, 48 h
Active and inactive are the calls of the source. No stated cut-off is given here; in the data, active = GI50 up to about 1.1 µM and inactive = higher.
result type: GI50

1. COc1cc(/C=N/n2c(-c3ccccc3)nn(C(C)=O)c2=O)cc(OC)c1OC | 2.23 µM (inactive)
2. COc1cc(CNc2nc3ccccc3n2Cc2ccccc2)cc(CN2CCOCC2)c1O | 28.3 µM (inactive)
3. C=C(CS(=O)(=O)c1ccccc1)C(=O)OCC | 2.77 µM (inactive)
4. CCn1nc(-c2ccccc2)c2c1N(C)c1ccccc1-n1c(-c3ccccc3)nnc1-2 | 18.8 µM (inactive)
5. Fc1c(F)c(F)c(CSc2nc3ccccc3[nH]2)c(F)c1F | > 100 µM (inactive)

All values here come from ChEMBL document CHEMBL1201862.
